molecular target: glucagon receptor (GCGR) (Homo sapiens); construct: expressed in transfected cells; host or cells: CHO-K1 cells overexpressing GCGR (membrane fractions); experiment: I125-glucagon binding assay (competition, GCGR membrane fractions); conditions: uM
Sequence (P47871 26-477): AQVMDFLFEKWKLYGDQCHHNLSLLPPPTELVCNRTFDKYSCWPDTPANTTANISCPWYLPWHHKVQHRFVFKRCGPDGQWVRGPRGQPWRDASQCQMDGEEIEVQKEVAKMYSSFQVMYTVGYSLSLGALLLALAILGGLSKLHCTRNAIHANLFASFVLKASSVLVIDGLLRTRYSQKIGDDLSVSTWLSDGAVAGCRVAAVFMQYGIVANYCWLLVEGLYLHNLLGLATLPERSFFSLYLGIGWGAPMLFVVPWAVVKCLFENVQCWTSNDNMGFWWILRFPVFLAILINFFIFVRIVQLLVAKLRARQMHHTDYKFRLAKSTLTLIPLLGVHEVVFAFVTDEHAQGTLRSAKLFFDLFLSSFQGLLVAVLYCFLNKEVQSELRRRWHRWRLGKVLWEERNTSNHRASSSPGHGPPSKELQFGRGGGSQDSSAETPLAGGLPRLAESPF
Please respond with reported IC50 for every item in the list.

CCOC(=O)CCNC(=O)c1ccc(N[C@H](CC(C)C)C(=O)Nc2ccc(-c3cc4ccccc4o3)cc2)cc1 [Compound 24-1]    > 10 µM
CCOC(=O)CCNC(=O)c1ccc(N[C@@H](CC(C)C)C(=O)Nc2ccc(-c3cc4ccccc4s3)cc2)cc1 [Compound 23-11]    > 10 µM

Prompt line: Bench note: what IC50 did CCOC(=O)CCNC(=O)c1ccc(N[C@@H](Cc2ccccc2)C(=O)Nc2ccc(C(F)(F)F)cc2)cc1 [Compound 24-5] show?
Response line: > 10 µM

====

target: glucagon receptor (GCGR) overexpressed CHO-K1 cells or human primary hepatocytes (Homo sapiens, UniProt P47871); construct: expressed in transfected cells; host or cells: GCGR overexpressed CHO-K1 cells or human primary hepatocytes (endogenous receptor); test: Glucagon cAMP inhibition assay (Cisbio cAMP Dynamic 2 HTRF); format: cell-based; conditions: inhibition of glucagon (EC50 concentration) induced cAMP production
Sequence (P47871 26-477): as above
Please respond with reported IC50 cAMP for every item in the list.

CC(C)[C@@H](COc1ccc(-c2cc3ccccc3o2)c(Cl)c1)Nc1ccc(C(=O)NCCS(=O)(=O)O)cc1    >30000 nM

// input: 3 compounds below; output: IC50 cAMP for each
1. CC(C)(C)[C@@H](COc1ccc(-c2ccc(Cl)cc2Cl)c(F)c1)Nc1ccc(C(=O)NCCC(=O)O)cc1
2. CC(C)[C@@H](COc1cc(F)c(-c2ccc(Cl)cc2Cl)c(F)c1)Nc1ccc(C(=O)NCCC(=O)O)cc1
3. CCCC[C@@H](COc1ccc(-c2cc3ccccc3o2)c(Cl)c1)Nc1ccc(C(=O)NCc2nnn[nH]2)cc1

Response line:
1: 166.9 nM; 2: 209 nM; 3: 672.8 nM

====

target: glucagon receptor (GCGR) overexpressed CHO-K1 cells or human primary hepatocytes (Homo sapiens); construct: expressed in transfected cells; host or cells: GCGR overexpressed CHO-K1 cells or human primary hepatocytes (endogenous receptor); assay: Glucagon cAMP inhibition assay (Cisbio cAMP Dynamic 2 HTRF); type: cell-based; conditions: uM
Please respond with reported IC50 cAMP for every item in the list.

CCOC(=O)CCNC(=O)c1ccc(N[C@@H](Cc2cccc3ccccc23)C(=O)Nc2ccc(-c3cc4ccccc4o3)cc2)cc1    >10 µM
CCOC(=O)CCNC(=O)c1ccc(N[C@H](Cc2ccc(-c3cc4ccccc4o3)cc2)C(=O)NC(C)C)cc1    >10 µM

// input: 6 compounds below; output: IC50 cAMP for each
1. O=C(NCCS(=O)(=O)O)c1ccc(N[C@@H](Cc2ccccc2)C(=O)Nc2ccc(-c3cc4ccccc4o3)cc2)cc1
2. O=C(O)CCNC(=O)c1ccc(N[C@@H](Cc2ccccc2)C(=O)Nc2ccc(C(F)(F)F)cc2)cc1
3. CCOC(=O)CCNC(=O)c1ccc(N[C@@H](Cc2cccc3ccccc23)C(=O)NC(C)C)cc1
4. CC[C@H](C)[C@H](Nc1ccc(C(=O)NCCC(=O)O)cc1)C(=O)Nc1ccc2cc(OC)ccc2c1
5. CCOC(=O)CCNC(=O)c1ccc(N[C@@H](Cc2ccc3ccccc3c2)C(=O)Nc2ccc(-c3cc4ccccc4o3)cc2)cc1
6. CC(C)C[C@H](Nc1ccc(C(=O)NCCC(=O)O)cc1)C(=O)Nc1ccc(-c2cc3ccccc3[nH]2)cc1

Response line:
>10 µM
>10 µM
>10 µM
>10 µM
>10 µM
>10 µM

// input: 3 compounds below; output: IC50 cAMP for each
1. O=C(O)CCNC(=O)c1ccc(NC(Cc2ccccc2)C(=O)Nc2ccc(C(F)(F)F)cc2)cc1 (stereo in doubt)
2. CC(C)NC(=O)[C@H](Cc1ccc2ccccc2c1)Nc1ccc(C(=O)NCCC(=O)O)cc1
3. CCOC(=O)CCNC(=O)c1ccc(N[C@H](Cc2ccc(-c3ccc(C(C)(C)C)cc3)cc2)C(=O)Nc2ccc(OC(F)(F)F)cc2)cc1

Response line:
[">10 µM", ">10 µM", ">10 µM"]

// input: 2 compounds below; output: IC50 cAMP for each
1. O=C(O)CCNC(=O)c1ccc(N[C@@H](Cc2ccccc2)C(=O)Nc2ccc(-c3ccc(Cl)cc3Cl)cc2)cc1
2. CCOC(=O)CCNC(=O)c1ccc(N[C@@H](Cc2ccc3ccccc3c2)C(=O)NC(C)C)cc1

Response line:
[">10 µM", ">10 µM"]

Prompt line: Bench note: what IC50 cAMP did `CC(C)NC(=O)[C@H](Cc1cccc2ccccc12)Nc1ccc(C(=O)NCCC(=O)O)cc1` show?
Response line: >10 µM

Measured values drawn from patent US11384060B2 for this set.
